B1: ZBTB22 (parent)
chain: HTGLKPYECGVCAKKFMWRDSFMR

Variants of: B1
assay remarks: protein stability index of a GFP-peptide fusion (GPS, HEK-293T) (PSI 1-6); higher = more stable;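 note: lentivirally expressed fusions sorted by FACS into six bins by GFP to DsRed ratio, PSI derived from sequencing read proportions per bin multiplied by bin number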
details: c terminus: a fixed tail appended
1 means recorded protein stability index is 2 or above; 0 means it is below 2.

Example entries begin here.
HTGLKPYECGVCAKLFMWRDSFMR [K15L]
0
HTGLKPYECGYCAKKFMWRDSFMR [V11Y]
1
HTGLKPYECGVCAKKFMWRDSRMR [F22R]
0
HTGLKPYECGVCAKKFFWRDSFMR [M17F]
1
HTGLKPYECGVCAKKIMWRDSFMR [F16I]
0

INPUT: Check this variant for protein stability index at or above 2: HTGLKPYECGVCAKKFMWRDSNMR [F22N]
OUTPUT: 0

INPUT: Quick check, protein stability index >= 2? HTGLKPYECGVCAKKFMWADSFMR [R19A]
OUTPUT: 1

INPUT: Determine whether measured protein stability index meets or exceeds 2 for HTGLKPYECGVCAKKFMYRDSFMR [W18Y]
OUTPUT: 1

INPUT: Exam item: decide whether the reported protein stability index for HTGLKPYECGVCAKKFMWRDAFMR [S21A] is at least 2.
OUTPUT: 1

INPUT: Does protein stability index meet or surpass 2 for HTGLKPYECGVCAKKFMDRDSFMR [W18D] ?
OUTPUT: 1

INPUT: Form field: protein stability index at least 2? Entry: HTGLKPYECGHCAKKFMWRDSFMR [V11H]
OUTPUT: 1

INPUT: Test whether the variant HTGLKPYECGVCGKKFMWRDSFMR [A13G] records protein stability index of 2 or higher.
OUTPUT: 0

INPUT: Tell me whether protein stability index is at least 2 here: HCGLKPYECGVCAKKFMWRDSFMR [T2C]
OUTPUT: 1

INPUT: // inclusive: protein stability index at least 2? input: HTGLKPYECGVCAKVFMWRDSFMR [K15V]
OUTPUT: 0

INPUT: Hello, I need to know if HTGVKPYECGVCAKKFMWRDSFMR [L4V] has measured protein stability index not below 2. Thanks!
OUTPUT: 1

INPUT: Please tell me: is the variant HTGLKPYECGVCAKKFMWRDSFTR [M23T] at or over 2 in terms of protein stability index?
OUTPUT: 1

// data source = the supplement of paper PMC10567573
